System: SW620
Protocol Notes: EC50 for viability (resazurin, 96 h)
Recorded Conditions: RPMI+GlutaMAX (10% FBS, 1% P/S); metabolite supplement: Hypoxanthine
hey, just use Yes if measured EC50 for viability is less than 7000 nM, otherwise No

I'd appreciate it if you could check whether O=c1[nH]cc(F)c(=O)[nH]1 [5-fluorouracil] has EC50 for viability smaller than 7000 nM.
No

I'd appreciate it if you could check whether Nc1nc(N)c(CC(=O)Nc2cnc(C(=O)N[C@@H](CCC(=O)O)C(=O)O)c(F)c2)c(=O)[nH]1 [TH9619] has EC50 for viability smaller than 7000 nM.
Yes

I'd appreciate it if you could check whether Nc1nc(N)c(NC(=O)Nc2cnc(C(=O)N[C@@H](CCc3nnn[nH]3)C(=O)O)c(F)c2)c(=O)[nH]1 has EC50 for viability smaller than 7000 nM.
Yes

I'd appreciate it if you could check whether Cc1[nH]nc2c1C(c1cc(CO)cc(-c3ccccc3)c1)(C(C)C)C(C#N)=C(N)O2 (stereo unspecified) [SHIN1] has EC50 for viability smaller than 7000 nM.
No

I'd appreciate it if you could check whether CN(Cc1cnc2nc(N)nc(N)c2n1)c1ccc(C(=O)N[C@@H](CCC(=O)O)C(=O)O)cc1 [methotrexate] has EC50 for viability smaller than 7000 nM.
Yes
